Entry source: patent US8367838B2

Biological target: mGlyT-1b (Mus musculus, UniProt P28571)
Construct: host or cells: Flp-in-CHO
Sequence (P28571 1-651 isoform P28571-2): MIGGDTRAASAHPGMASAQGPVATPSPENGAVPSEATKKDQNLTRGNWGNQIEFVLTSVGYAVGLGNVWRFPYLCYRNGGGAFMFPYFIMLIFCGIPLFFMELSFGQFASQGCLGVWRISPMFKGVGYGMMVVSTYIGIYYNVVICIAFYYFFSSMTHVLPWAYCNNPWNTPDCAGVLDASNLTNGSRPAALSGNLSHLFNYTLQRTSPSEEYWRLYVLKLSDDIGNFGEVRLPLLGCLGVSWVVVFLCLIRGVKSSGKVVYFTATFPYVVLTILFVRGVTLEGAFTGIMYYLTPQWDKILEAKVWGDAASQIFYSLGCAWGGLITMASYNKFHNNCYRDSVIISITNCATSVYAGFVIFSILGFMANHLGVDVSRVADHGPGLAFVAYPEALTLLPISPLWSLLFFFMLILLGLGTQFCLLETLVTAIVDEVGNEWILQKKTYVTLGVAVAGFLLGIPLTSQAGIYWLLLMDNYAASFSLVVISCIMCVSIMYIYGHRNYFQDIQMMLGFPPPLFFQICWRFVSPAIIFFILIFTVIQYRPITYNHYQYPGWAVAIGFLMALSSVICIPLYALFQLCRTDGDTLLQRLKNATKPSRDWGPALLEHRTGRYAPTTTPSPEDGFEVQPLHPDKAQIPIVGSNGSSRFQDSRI
Test: Glycine uptake inhibition assay (mGlyT-1b), [3H]-glycine uptake in transfected Flp-in-CHO cells
Assay type: cell-based
Settings: Flp-in-CHO cells transfected with mGlyT-1b cDNA; [3H]-glycine 60 nM and 25 μM non-radioactive glycine; 20 min preincubation at 22° C.; read-out: IC50 (μM) at GlyT-1; Ic50 (hglyt1b)
Counter-ions that a name gives are not always drawn.
Kindly state IC50 for each of the entries shown.
# output: number + unit

COMPOUND | TESTED TARGET | TEST READOUT | MEASURED VALUE
CC(C)Oc1ccc(F)c(-c2ccc([C@@H](O)[C@@H](N)c3ccc(Cl)c(Cl)c3)cc2)c1 (racemic) | mGlyT-1b (Mus musculus, UniProt P28571) | IC50 | 0.567 µM
CC(C)Oc1ccc([C@@H](O)[C@@H](N)c2ccc(Cl)cc2)cc1 (racemic) [Example 10, hydrochloride] | mGlyT-1b (Mus musculus, UniProt P28571) | IC50 | 0.188 µM

Each of the following entries comes with a recorded value; kindly state IC50 for each.
1. CS(=O)(=O)c1cccc(-c2ccc([C@@H](O)[C@@H](N)c3ccc(Cl)c(Cl)c3)nc2)c1 (racemic)
2. CN[C@@H](c1ccc(Cl)c(Cl)c1)[C@H](O)c1ccc(-c2cncc(F)c2)cc1 (racemic) [Example 39, hydrochloride]
3. Cc1cc([C@H](N)[C@H](O)c2ccc(-c3cccnc3)cc2)ccc1Cl (racemic)
4. N[C@@H](c1ccc(Cl)cc1)[C@H](O)c1ccc(-c2cncnc2)cc1 (racemic)
5. Cc1cc(OC2CCOCC2)ncc1[C@@H](O)[C@@H](N)c1ccc(Cl)c(Cl)c1 (racemic) [Example 21, dihydrochloride]
6. N[C@@H](c1ccc(Cl)c(Cl)c1)[C@H](O)c1ccc(OC2CCS(=O)(=O)CC2)cc1 (racemic)
7. N[C@@H](c1ccc(Cl)cc1)[C@H](O)c1ccc(OC2CCOCC2)cc1 (racemic)
8. N[C@@H](c1ccc(Cl)c(Cl)c1)[C@H](O)c1ccc(Oc2ccccc2)cc1 (racemic)

0.097 µM
0.208 µM
0.049 µM
0.139 µM
0.091 µM
0.088 µM
0.054 µM
0.323 µM
